- System: MCF7 cell lines
- protocol-summary: Cytotoxic assays of KAC-12 on breast cancer MCF7 cell lines
- Format: cell-based, human
pIC50: −log10 of the molar value.

entry-smiles	pIC50
O=C(Cc1ccc(NC(=O)c2cccc(Cl)c2)cc1)NCc1ccccc1	4.32
